- System tested: N-type calcium channels in IMR-32 cells (Homo sapiens, UniProt Q00975)
- Construct: host or cells: IMR-32 cells differentiated with dibutyryl cAMP and bromodeoxyuridine
- Sequence (Q00975 whole entry): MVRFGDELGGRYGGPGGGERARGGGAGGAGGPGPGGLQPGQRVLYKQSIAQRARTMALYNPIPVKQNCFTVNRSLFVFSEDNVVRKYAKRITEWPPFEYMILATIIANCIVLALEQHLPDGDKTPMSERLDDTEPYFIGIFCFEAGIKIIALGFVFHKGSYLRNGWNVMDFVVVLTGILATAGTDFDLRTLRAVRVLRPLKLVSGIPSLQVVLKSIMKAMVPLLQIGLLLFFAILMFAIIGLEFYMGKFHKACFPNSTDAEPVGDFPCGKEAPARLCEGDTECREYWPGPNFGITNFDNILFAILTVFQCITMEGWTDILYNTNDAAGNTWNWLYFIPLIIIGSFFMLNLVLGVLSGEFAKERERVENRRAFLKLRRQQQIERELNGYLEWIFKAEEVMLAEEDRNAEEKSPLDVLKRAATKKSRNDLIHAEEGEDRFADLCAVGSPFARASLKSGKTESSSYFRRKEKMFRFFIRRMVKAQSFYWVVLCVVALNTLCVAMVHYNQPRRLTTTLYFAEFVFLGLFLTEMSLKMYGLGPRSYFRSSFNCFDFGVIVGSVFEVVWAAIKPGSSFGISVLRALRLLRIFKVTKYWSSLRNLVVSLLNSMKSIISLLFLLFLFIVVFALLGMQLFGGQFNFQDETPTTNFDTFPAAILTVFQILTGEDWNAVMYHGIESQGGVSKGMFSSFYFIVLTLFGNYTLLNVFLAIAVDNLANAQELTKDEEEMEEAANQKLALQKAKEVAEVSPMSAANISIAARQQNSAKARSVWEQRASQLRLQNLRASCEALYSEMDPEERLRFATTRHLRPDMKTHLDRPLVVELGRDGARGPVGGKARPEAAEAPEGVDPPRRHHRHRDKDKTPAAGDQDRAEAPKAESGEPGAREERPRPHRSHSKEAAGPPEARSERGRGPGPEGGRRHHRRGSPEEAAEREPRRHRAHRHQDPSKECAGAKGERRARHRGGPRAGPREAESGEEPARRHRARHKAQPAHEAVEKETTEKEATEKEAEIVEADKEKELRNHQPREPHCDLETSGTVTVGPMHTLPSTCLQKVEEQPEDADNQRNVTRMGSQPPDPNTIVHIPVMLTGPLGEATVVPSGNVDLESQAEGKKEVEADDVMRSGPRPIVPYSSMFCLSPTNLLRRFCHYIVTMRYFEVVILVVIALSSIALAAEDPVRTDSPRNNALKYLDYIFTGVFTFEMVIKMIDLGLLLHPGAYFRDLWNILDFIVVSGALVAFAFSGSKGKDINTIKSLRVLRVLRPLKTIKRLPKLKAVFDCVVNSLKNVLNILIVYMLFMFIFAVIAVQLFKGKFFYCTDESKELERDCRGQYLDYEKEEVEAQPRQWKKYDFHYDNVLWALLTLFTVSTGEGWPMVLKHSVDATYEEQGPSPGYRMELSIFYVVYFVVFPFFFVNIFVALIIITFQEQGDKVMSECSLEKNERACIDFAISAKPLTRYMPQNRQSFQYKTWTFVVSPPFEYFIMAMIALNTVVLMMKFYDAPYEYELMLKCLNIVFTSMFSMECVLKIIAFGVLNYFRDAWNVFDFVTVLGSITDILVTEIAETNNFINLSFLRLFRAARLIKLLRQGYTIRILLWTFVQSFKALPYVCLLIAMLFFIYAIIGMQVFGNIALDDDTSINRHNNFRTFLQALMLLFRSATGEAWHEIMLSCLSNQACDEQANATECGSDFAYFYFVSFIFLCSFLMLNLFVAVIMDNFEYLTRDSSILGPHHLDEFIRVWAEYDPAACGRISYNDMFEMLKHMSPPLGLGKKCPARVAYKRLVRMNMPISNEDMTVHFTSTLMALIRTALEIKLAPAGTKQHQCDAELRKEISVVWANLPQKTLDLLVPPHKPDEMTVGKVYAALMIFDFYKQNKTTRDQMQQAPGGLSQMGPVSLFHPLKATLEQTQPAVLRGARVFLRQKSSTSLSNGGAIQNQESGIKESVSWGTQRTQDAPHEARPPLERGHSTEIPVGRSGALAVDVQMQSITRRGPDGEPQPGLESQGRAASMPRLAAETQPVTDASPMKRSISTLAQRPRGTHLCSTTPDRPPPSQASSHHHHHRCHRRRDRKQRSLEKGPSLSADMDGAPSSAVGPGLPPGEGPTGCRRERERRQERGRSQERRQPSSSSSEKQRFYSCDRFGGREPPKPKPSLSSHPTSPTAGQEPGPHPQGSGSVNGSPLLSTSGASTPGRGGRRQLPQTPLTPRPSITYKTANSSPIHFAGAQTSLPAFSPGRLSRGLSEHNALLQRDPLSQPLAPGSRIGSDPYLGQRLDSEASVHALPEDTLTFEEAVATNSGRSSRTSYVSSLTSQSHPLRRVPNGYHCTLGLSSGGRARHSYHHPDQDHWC
- Sequence (P54289 25-956 partner limits assumed): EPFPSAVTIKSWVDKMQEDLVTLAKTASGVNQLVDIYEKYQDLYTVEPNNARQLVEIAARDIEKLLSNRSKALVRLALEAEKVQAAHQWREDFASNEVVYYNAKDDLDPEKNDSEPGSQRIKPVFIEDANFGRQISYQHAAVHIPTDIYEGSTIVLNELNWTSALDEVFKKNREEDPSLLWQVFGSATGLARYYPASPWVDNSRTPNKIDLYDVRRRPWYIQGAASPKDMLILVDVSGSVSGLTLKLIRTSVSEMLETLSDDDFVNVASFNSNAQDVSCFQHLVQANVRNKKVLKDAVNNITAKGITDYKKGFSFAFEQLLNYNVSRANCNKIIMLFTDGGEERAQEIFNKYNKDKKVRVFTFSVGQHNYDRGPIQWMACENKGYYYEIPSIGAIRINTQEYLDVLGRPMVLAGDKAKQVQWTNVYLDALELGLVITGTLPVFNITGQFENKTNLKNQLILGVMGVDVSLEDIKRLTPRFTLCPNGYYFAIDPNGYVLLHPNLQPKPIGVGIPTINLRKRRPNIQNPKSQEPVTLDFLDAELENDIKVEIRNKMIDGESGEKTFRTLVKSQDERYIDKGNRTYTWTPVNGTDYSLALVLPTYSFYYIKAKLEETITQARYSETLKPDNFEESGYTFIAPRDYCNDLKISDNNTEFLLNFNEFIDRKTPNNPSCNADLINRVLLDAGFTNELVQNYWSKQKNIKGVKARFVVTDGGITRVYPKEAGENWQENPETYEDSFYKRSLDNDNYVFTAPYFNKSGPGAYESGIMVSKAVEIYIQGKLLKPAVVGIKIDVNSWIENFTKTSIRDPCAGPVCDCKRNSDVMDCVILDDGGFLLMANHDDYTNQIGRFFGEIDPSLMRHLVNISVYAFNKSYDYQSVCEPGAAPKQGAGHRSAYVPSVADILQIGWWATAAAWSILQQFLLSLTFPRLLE
- Sequence (P54289 957-1103 partner limits assumed): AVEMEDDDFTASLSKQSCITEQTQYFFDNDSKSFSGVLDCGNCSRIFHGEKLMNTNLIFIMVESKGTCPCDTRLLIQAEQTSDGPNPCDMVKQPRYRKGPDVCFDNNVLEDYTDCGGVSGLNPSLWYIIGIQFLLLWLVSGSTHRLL
- Sequence (Q02641 whole entry partner): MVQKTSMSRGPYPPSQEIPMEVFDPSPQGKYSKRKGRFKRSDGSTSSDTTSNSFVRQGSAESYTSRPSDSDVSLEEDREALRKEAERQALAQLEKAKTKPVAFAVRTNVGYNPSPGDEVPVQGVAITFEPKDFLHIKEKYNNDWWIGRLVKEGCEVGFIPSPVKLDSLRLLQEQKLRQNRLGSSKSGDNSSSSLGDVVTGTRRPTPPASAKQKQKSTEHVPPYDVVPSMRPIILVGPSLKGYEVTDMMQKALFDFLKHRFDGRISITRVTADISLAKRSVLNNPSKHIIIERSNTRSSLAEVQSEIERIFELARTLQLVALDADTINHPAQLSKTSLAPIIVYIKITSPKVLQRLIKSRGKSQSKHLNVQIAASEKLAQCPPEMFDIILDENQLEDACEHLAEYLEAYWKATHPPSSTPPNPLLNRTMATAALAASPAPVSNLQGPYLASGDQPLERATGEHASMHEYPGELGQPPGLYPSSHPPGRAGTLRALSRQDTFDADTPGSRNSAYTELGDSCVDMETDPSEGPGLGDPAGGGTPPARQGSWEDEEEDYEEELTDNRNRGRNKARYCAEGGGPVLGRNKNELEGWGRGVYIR
- Method summary: N-type Ca2+ channel blocking potency in IMR-32 cells using Indo-1
- Format: cell-based
- Cond: IMR-32, IMR-32 cells; at 10 μM; read-out: IMR32 % blockage at 10 μM
Counter-ions that a name gives are not always drawn.

- Compound: "CC(C)C[C@@H](C(=O)N1CCN(C(c2ccc(F)cc2)c2ccc(F)cc2)CC1)N(Cc1ccc(OC(C)(C)C)cc1)Cc1ccc(OC(C)(C)C)cc1 [Example 57]"
  Measure unit: "%"
  inhibition at 10 µM: 7
- Compound: "CC(C)C[C@H](N)C(=O)N1CCN(C(c2ccc(F)cc2)c2ccc(F)cc2)CC1 [Example 53]"
  Measure unit: "%"
  inhibition at 10 µM: 78
- Compound: "CC(C)N[C@H](C(=O)NCCCC(c1ccc(F)cc1)c1ccc(F)cc1)C(C)C [Example 65]"
  Measure unit: "%"
  inhibition at 10 µM: 83
- Compound: "CC(C)C[C@@H](C(=O)NCCCC(c1ccc(F)cc1)c1ccc(F)cc1)N(C)C1CCCCC1 [Example 21, monohydrochloride]"
  Measure unit: "%"
  inhibition at 10 µM: 94
- Compound: "CC(C)C[C@H](NCc1ccccc1)C(=O)N1CCN(C(c2ccc(F)cc2)c2ccc(F)cc2)CC1 [Example 62]"
  Measure unit: "%"
  inhibition at 10 µM: 99
- Compound: "CC(C)C[C@@H](C(=O)NCCC(c1ccccc1)c1ccccc1)N1CCCCC1.Cl [Example 24, monohydrochloride]"
  Measure unit: "%"
  inhibition at 10 µM: 89
- Compound: "CC(C)C[C@H](NC(=O)N1CCN(C)CC1)C(=O)NCCCC(c1ccc(F)cc1)c1ccc(F)cc1 [Example 29]"
  Measure unit: "%"
  inhibition at 10 µM: 82
- Compound: "CC(C)C[C@@H](C(=O)NCCCC(c1ccc(F)cc1)c1ccc(F)cc1)N1CCOCC1 [Example 23, monohydrochloride]"
  Measure unit: "%"
  inhibition at 10 µM: 89
- Compound: "C[C@H](NC(=O)N1CCCCCC1)C(=O)NCCCC(c1ccc(F)cc1)c1ccc(F)cc1 [Example 30]"
  Measure unit: "%"
  inhibition at 10 µM: 100
- Compound: "CC(C)C[C@@H](C(=O)NCCCC(c1ccc(F)cc1)c1ccc(F)cc1)N1CCCCC1 [Example 22]"
  Measure unit: "%"
  inhibition at 10 µM: 94
- Compound: "CC(C)C[C@@H](C(=O)N1CCN(C(c2ccc(F)cc2)c2ccc(F)cc2)CC1)N(Cc1ccc(C(C)(C)C)cc1)Cc1ccc(C(C)(C)C)cc1 [Example 59]"
  Measure unit: "%"
  inhibition at 10 µM: 2
- Compound: "CC(C)CCN(CCC(C)C)[C@@H](Cc1ccccc1)C(=O)N1CCN(C(c2ccc(F)cc2)c2ccc(F)cc2)CC1.Cl [Example 56, dihydrochloride]"
  Measure unit: "%"
  inhibition at 10 µM: 37
- Compound: "CC(C)C[C@@H](C(=O)NCCCC(c1ccc(F)cc1)c1ccc(F)cc1)N(C)C [Example 20, monohydrochloride]"
  Measure unit: "%"
  inhibition at 10 µM: 92
- Compound: "CC(C)C[C@@H](C(=O)NCCCC(c1ccc(F)cc1)c1ccc(F)cc1)N(C)C(C)C [Example 68]"
  Measure unit: "%"
  inhibition at 10 µM: 97
